Biological target: Glycogen synthase kinase-3 alpha (Homo sapiens)
Assay: concentration-response blocking of human GSK3A – biochemical, luminescence, cell-free homogeneous, retest, dose response (AID 463203)
Settings: GSK-3 alpha enzyme, ADP-Glo luminescence, 60 min
Calls of active or inactive are those of the source.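 Rule for the calls: active = more than half of replicate measurements showing over 20% loss of kinase signal relative to plate controls; inconclusive = some but at most half of replicates over 20% loss; inactive = no replicate over 20% signal loss.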
This listing pairs compounds with measured AC50.

compound: O=C(NCCCn1ccnc1)C(=O)NC1CCCCC1
AC50: > 30 µM (inactive)
//
compound: COc1ccc(C(=O)Nc2nc(C)cc(C)n2)cc1
AC50: > 30 µM (inactive)
//
compound: COc1ccc(-n2c(C)c([N+](=O)[O-])c3ccc(O)c(CN(C)C)c32)cc1
AC50: 5.94 µM
//
compound: O=c1[nH]cnc(O)c1N=Nc1ccccc1
AC50: 9.87 µM
//
compound: COC1(OC)N=C(N)C2(C#N)C(c3ccc4c(c3)OCO4)C12C#N (configuration not stated)
AC50: 20.1 µM
//
compound: COc1cc(-c2nnc(SCc3c(F)cccc3Cl)o2)cc(OC)c1OC
AC50: > 30 µM (inactive)
//
compound: O=C1NC(=Nc2ccccc2Cl)S/C1=C\c1cc([N+](=O)[O-])ccc1O
AC50: 3.23 µM
//
compound: Cc1ccc(SCCc2cc[n+](CC(=O)c3ccccc3)cc2)cc1
AC50: > 30 µM (inactive)
//
compound: CC(C)c1nnc(NC(=O)CCN2C(=O)c3ccccc3C2=O)s1
AC50: > 30 µM (inactive)
//
compound: CCOc1cc(/C=C2\SC(N)=NC2=O)ccc1O
AC50: 22.9 µM
//
compound: Cc1ccc2nc(-c3ccccn3)[nH]c2c1
AC50: > 30 µM (inactive)
//
compound: CCCCN(CCCC)c1cn[nH]c(=O)c1Cl
AC50: 11.2 µM

----------
Target: Glycogen synthase kinase-3 alpha (Homo sapiens)
Test: concentration-response blocking of human GSK3A – biochemical, luminescence, cell-free homogeneous, retest, dose response (AID 463203)
Settings: GSK-3 alpha enzyme, ADP-Glo luminescence, 60 min
The source made the active and inactive calls.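 Rule for the calls: active = more than half of replicate measurements showing over 20% loss of kinase signal relative to plate controls; inconclusive = some but at most half of replicates over 20% loss; inactive = no replicate over 20% signal loss.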
Possible outcomes: active, inactive

molecule: CCOC(=O)c1c(NC(=O)Cc2cccs2)sc2c1CCCC2
measured_target: Glycogen synthase kinase-3 alpha (Homo sapiens)
class: inactive
//
molecule: CC(C)CCNc1nc(N)c([N+](=O)[O-])c(N2CCCCCC2)n1
measured_target: Glycogen synthase kinase-3 alpha (Homo sapiens)
class: active
//
molecule: COc1ccc(COC(=O)C2=C(C)NC(=O)NC2c2cccc(Br)c2)cc1 (stereo unspecified)
measured_target: Glycogen synthase kinase-3 alpha (Homo sapiens)
class: active
//
molecule: O=C(CNC(=S)N(Cc1ccccc1)Cc1cccnc1)NC1CCCCC1
measured_target: Glycogen synthase kinase-3 alpha (Homo sapiens)
class: inactive
//
molecule: COc1cc(O)c(NC(C)=O)c2nonc12
measured_target: Glycogen synthase kinase-3 alpha (Homo sapiens)
class: inactive
//
molecule: O=c1c2ccccc2oc2ccc(NCCCn3ccnc3)cc12
measured_target: Glycogen synthase kinase-3 alpha (Homo sapiens)
class: inactive

----------
Target: Glycogen synthase kinase-3 alpha (Homo sapiens)
Experiment: concentration-response blocking of human GSK3A – biochemical, luminescence, cell-free homogeneous, retest, dose response (AID 463203)
Details: GSK-3 alpha enzyme, ADP-Glo luminescence, 60 min
The source made the active and inactive calls.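 Rule for the calls: active = more than half of replicate measurements showing over 20% loss of kinase signal relative to plate controls; inconclusive = some but at most half of replicates over 20% loss; inactive = no replicate over 20% signal loss.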
Classes used: 1 for active, -1 for inactive

compound: COc1cc(/C=N/NC(=O)c2ccncc2)ccc1OCCN1CCCCC1
class: -1

compound: Fc1cccc(/C=N/Nc2ccc3ccccc3n2)c1
class: -1

compound: CN1/C(=C/C2CC(=O)NC2=O)C(C)(C)c2ccccc21 (configuration not stated)
class: 1

compound: CC1CC(=O)c2cnc(NCC3CCCO3)nc2C1 (configuration not stated)
class: -1

compound: Oc1ccc(/C=N/Nc2nccnc2Cl)cc1
class: 1

compound: CN(C)C(=O)Oc1cccc2c(OC(=O)N(C)C)cccc12
class: -1

compound: O=C(NCCN1CCc2ccccc2C1)Nc1ccc(F)cc1
class: -1

compound: O=c1[nH]nnc2c1sc1nc(N3CCOCC3)c3c(c12)CCCC3
class: 1

compound: CCN(CC)C(=O)c1ccc(NC(=O)Nc2ccccc2F)cc1
class: 1

compound: O=C(c1ccc2c3n(nc2c1)-c1ccccc1CO3)N1CCOCC1
class: 1

compound: COc1ccc(-c2nc(N)ncc2-c2ccccc2)c(O)c1
class: 1

compound: CCOC(=O)N1CC=C2C(C#N)=C(N)C(C#N)(C#N)[C@H](c3cccs3)[C@H]2C1
class: 1

----------
Molecular target: Glycogen synthase kinase-3 alpha (Homo sapiens)
Assay: concentration-response blocking of human GSK3A – biochemical, luminescence, cell-free homogeneous, retest, dose response (AID 463203)
Conditions: GSK-3 alpha enzyme, ADP-Glo luminescence, 60 min
Activity calls are given as the source filed them.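 Rule for the calls: active = more than half of replicate measurements showing over 20% loss of kinase signal relative to plate controls; inconclusive = some but at most half of replicates over 20% loss; inactive = no replicate over 20% signal loss.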
Possible outcomes: Yes for active, No for inactive

compound: CCc1cccc(NC(=O)C2CCN(c3ncnc4sc(C)c(C)c34)CC2)c1
class: No
//
compound: C[C@H]1CN([C@@H](C)CO)C(=O)c2cccc(NC(=O)c3cnccn3)c2O[C@@H]1CN(C)S(=O)(=O)c1ccc(F)cc1
class: Yes
//
compound: Cc1cc(N2CCN(c3ccccc3)CC2)n2nnnc2n1
class: No
//
compound: Cc1nn(C)c(C)c1CN(C)S(=O)(=O)c1ccc(F)cc1
class: No
//
compound: S=C(NCc1ccccc1)NCc1ccc2c(c1)OCO2
class: Yes
//
compound: CCCCn1c(O)c(C=NCCCn2ccnc2)c(=O)[nH]c1=O
class: Yes
//
compound: CCOC(=O)C1=C(c2ccccc2)Nc2ncnn2C1c1cccc(O)c1 (stereo unspecified)
class: Yes
//
compound: C#CCOCCOCCOCCNc1nc(N2CCN(C(=O)[C@H](CCC(=O)O)n3cc([C@@H](N)CCCCN)nn3)CC2)nc(N2CCN(C(=O)[C@H](CCC(=O)O)n3cc([C@@H](N)CCCCN)nn3)CC2)n1
class: No
//
compound: Cc1ccc2c(c1N)C(=O)c1ccccc1C2=O
class: No
//
compound: COc1ccc(-c2cc(C(F)(F)F)nc(SCC(=O)NCc3ccco3)n2)cc1OC
class: No
//
compound: COC(=O)[C@@H](NC(=O)NCc1ccccc1F)C(C)C
class: No
//
compound: O=C1CC(/C=C/c2ccncc2)=Nc2ccccc2N1
class: Yes
//
compound: COCC(=O)Nc1ccc([N+](=O)[O-])cc1OC
class: No
//
compound: CCOC(=O)c1cc(-c2ccccc2)n(CCC(=O)NC(C)CC)c1C (stereo unspecified)
class: No
//
compound: Cc1ccccc1N=Nc1c(O)[nH]c2ccccc12
class: No
//
compound: CCN1CCN(c2nc(N)c([N+](=O)[O-])c(Nc3ccc(C)cc3)n2)CC1
class: No
//
compound: Cc1nc(NCC2CCCO2)nc2c1C(=O)CC(C)C2 (stereo unspecified)
class: No
//
compound: Cn1c(O)c(C=NCCc2c[nH]c3ccccc23)c(=O)n(C)c1=O
class: Yes
//
compound: O=C(CSc1ccccc1)Nc1ccc2c(c1)C(=O)NC2=O
class: Yes
//
compound: O=C(Nc1ccc(Cl)c([N+](=O)[O-])c1)c1ccc(NCCCN2CCOCC2)c([N+](=O)[O-])c1
class: No
//
compound: Cc1ccc(Sc2ccc(NC(=O)CCl)cc2)c(C)c1
class: No

----------
Target: Glycogen synthase kinase-3 alpha (Homo sapiens) (UniProt P49840)
Sequence (P49840 whole entry, looked up): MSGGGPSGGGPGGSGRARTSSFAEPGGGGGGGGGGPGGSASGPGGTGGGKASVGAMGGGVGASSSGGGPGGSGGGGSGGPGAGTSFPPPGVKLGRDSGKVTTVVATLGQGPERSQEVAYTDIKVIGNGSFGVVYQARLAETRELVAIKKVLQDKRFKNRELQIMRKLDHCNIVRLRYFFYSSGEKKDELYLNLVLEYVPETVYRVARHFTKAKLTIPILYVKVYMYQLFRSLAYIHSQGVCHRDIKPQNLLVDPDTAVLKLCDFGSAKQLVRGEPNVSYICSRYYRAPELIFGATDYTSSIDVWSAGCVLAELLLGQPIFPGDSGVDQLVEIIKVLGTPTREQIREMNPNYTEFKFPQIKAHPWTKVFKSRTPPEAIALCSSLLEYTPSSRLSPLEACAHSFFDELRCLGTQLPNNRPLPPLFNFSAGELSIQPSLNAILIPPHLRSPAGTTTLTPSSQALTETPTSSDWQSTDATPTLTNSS
Assay: concentration-response blocking of human GSK3A – biochemical, luminescence, cell-free homogeneous, retest, dose response (AID 463203)
Details: GSK-3 alpha enzyme, ADP-Glo luminescence, 60 min
The source made the active and inactive calls.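 Rule for the calls: active = more than half of replicate measurements showing over 20% loss of kinase signal relative to plate controls; inconclusive = some but at most half of replicates over 20% loss; inactive = no replicate over 20% signal loss.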
Outcome codes: active, inactive

compound: COc1ccc(-c2oc3cc(O)c(OC)c(O)c3c(=O)c2OC)cc1
class: inactive
--
compound: CC(=O)Nc1ccc(NC(=O)CSc2nnc(-c3ccc4c(c3)OCO4)o2)cc1
class: active
--
compound: Cc1nc(SCC(=O)NCC2CCCO2)c2c3c(sc2n1)CCC3 (stereo unspecified)
class: inactive
--
compound: O=C(c1cccnc1NCc1ccccc1)N1CCOCC1
class: inactive
--
compound: COc1ccc(-c2nsc3c(N4CCCCC4C)ncnc23)cc1 (stereo unspecified)
class: inactive
--
compound: O=C(CSc1nc2[nH]ncc2c(=O)n1-c1ccccc1)NCc1cccs1
class: inactive
--
compound: COc1ccc(OC)c(/C=C2\Oc3cc(OCC(=O)N4CCC[C@H]4C(=O)O)ccc3C2=O)c1
class: inactive
--
compound: COc1ccccc1OCC(=O)Nc1sc2c(c1C(N)=O)CCC2
class: inactive
--
compound: CCOC(=O)c1sc(NC(=O)C2CCC2)cc1C
class: inactive
--
compound: COc1ccc(C(CNc2ccc(S(=O)(=O)N3CCCC3)cc2[N+](=O)[O-])N2CCCC2)cc1 (stereo unspecified)
class: inactive
--
compound: C=CCOc1ccc(/C=N/n2cncn2)cc1OC
class: inactive

----------
Biological target: Glycogen synthase kinase-3 alpha (Homo sapiens)
Assay: concentration-response blocking of human GSK3A – biochemical, luminescence, cell-free homogeneous, retest, dose response (AID 463203)
Details: GSK-3 alpha enzyme, ADP-Glo luminescence, 60 min
Activity calls are given as the source filed them.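 The calls were made as follows: active = more than half of replicate measurements showing over 20% loss of kinase signal relative to plate controls; inconclusive = some but at most half of replicates over 20% loss; inactive = no replicate over 20% signal loss.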
Possible outcomes: label 1 for active, label 0 for inactive

compound: CC(=NCCO)c1c(O)n(C2CCCCC2)c(=O)[nH]c1=O
class: label 1

compound: Cc1sc2ncnc(N3CCC(C(=O)Nc4ccc(C#N)cc4)CC3)c2c1C
class: label 0

compound: Cc1ccc(-c2nnc(N3CCN(C(=O)COc4ccccc4)CC3)c3ccccc23)cc1
class: label 0

compound: CCN(CC)c1ccc2ccc(=O)oc2c1
class: label 0

compound: COc1ccc(S(=O)(=O)N[C@@H](CC(C)C)C(=O)O)cc1
class: label 0

compound: COc1cc2c(C#N)c(N3CCCCC3)nc(N)c2c(N)n1
class: label 1

compound: O=c1c2ccccc2[nH]c2ccccc12
class: label 0

compound: Cc1ccc2nc(C3CCCCC3)[nH]c2c1
class: label 0

compound: CCCCOC(=O)c1ccc(N/C(=N\S(=O)(=O)c2ccccc2)c2ccccc2)cc1
class: label 0

compound: O=C1NC(c2ccccc2)(C(F)(F)F)C(=O)N1Cc1cccnc1 (configuration not stated)
class: label 0

compound: COc1cc2c(ccc3cc(OC)c(OC)c(O)c32)cc1O
class: label 1

compound: CC1=[N+](C)c2ccc3ccccc3c2C1(C)C
class: label 0
